# Tested on: K98450-129-R-PDC multicell spheroids, viability
# assay_explanation: Anticancer human tumor K98450-129-R-PDC patient-derived colon adenocarcinoma cell line growth inhibition [PI3K]; active means viability on the fitted dose curve at most 10% of control; inactive means the rest
# recorded_conditions: second compound 0.0316 µM; first compound 10 µM
# Text: Combinatorial screen of targeted agents with the PI3K inhibitors inavolisib, alpelisib, duvelisib, and copanlisib in multi-cell type tumor spheroids A high-throughput screen of multi-cell type tumor spheroids was designed to identify active combinations of targeted small molecules and PI3K pathway inhibitors. […] Compounds. […] If the clinical Cmax for an agent had not been determined, the highest concentration tested was 10 microM. […]
Pick from active, inactive when you respond.

Exercise: Returns: the outcome recorded for Cn1nccc1Nc1nccc(-c2ccn(C(CO)c3ccc(Cl)c(F)c3)c(=O)c2)n1 (stereo not drawn) + COc1c(OCCCN2CCOCC2)ccc2c3n(c(=NC(=O)c4cnc(N)nc4)nc12)CCN3 in this assay.
Solution: inactive

Exercise: Returns: the outcome recorded for CC1(C)CCC(CN2CCN(c3ccc(C(=O)NS(=O)(=O)c4ccc(NCC5CCOCC5)c([N+](=O)[O-])c4)c(Oc4cnc5[nH]ccc5c4)c3)CC2)=C(c2ccc(Cl)cc2)C1 + CC(Nc1ccc2c(c1)OCCn1cc(N3C(=O)OCC3C(F)F)nc1-2)C(N)=O in this assay.
Solution: active

Exercise: Returns: the outcome recorded for C#Cc1c(F)ccc2cc(O)cc(-c3ncc4c(N5CC6CCC(C5)N6)nc(OCC56CCCN5CC(F)C6)nc4c3F)c12 (stereo not drawn) + CC(Nc1ccc2c(c1)OCCn1cc(N3C(=O)OCC3C(F)F)nc1-2)C(N)=O in this assay.
Solution: inactive

###

Assign viability, T/C to each entry below.
# Test system: K98450-129-R-PDC multicell spheroids, viability
# assay_explanation: Anticancer human tumor K98450-129-R-PDC cell line growth inhibition [PI3K];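 further: spheroids exposed to agents for seven days before read-out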
# recorded_conditions: second compound 0.0316 µM; first compound 3.16 µM; hits give low values
Answer format: numeric, % implied, no suffix.

Exercise: Can you share its viability, T/C? I mean this molecule: Cn1nccc1Nc1nccc(-c2ccn(C(CO)c3ccc(Cl)c(F)c3)c(=O)c2)n1 (stereo unspecified) + CC(Nc1ncnc2nc[nH]c12)c1cc2cccc(Cl)c2c(=O)n1-c1ccccc1
Solution: 88.9

Exercise: Can you share its viability, T/C? I mean this molecule: Cn1ncc(Cl)c1-c1cc(C(=O)NC(CN)Cc2cccc(F)c2)sc1Cl (stereo unspecified) + CC(Nc1ccc2c(c1)OCCn1cc(N3C(=O)OCC3C(F)F)nc1-2)C(N)=O
Solution: 90.3

Exercise: Can you share its viability, T/C? I mean this molecule: C[C@@H](NC(=O)c1ncnc(N)c1Cl)c1ncc(C(=O)Nc2cc(C(F)(F)F)c(Cl)cn2)s1 + CC(Nc1ccc2c(c1)OCCn1cc(N3C(=O)OCC3C(F)F)nc1-2)C(N)=O
Solution: 122

Exercise: Can you share its viability, T/C? I mean this molecule: Cn1nccc1Nc1nccc(-c2ccn(C(CO)c3ccc(Cl)c(F)c3)c(=O)c2)n1 (stereo unspecified) + Cc1nc(NC(=O)N2CCCC2C(N)=O)sc1-c1ccnc(C(C)(C)C(F)(F)F)c1
Solution: 97.2

Exercise: Can you share its viability, T/C? I mean this molecule: C=CC(=O)N1CCN(c2nc(=O)n(-c3c(C)ccnc3C(C)C)c3nc(-c4c(O)cccc4F)c(F)cc23)C(C)C1 (stereo unspecified) + Cc1nc(NC(=O)N2CCCC2C(N)=O)sc1-c1ccnc(C(C)(C)C(F)(F)F)c1
Solution: 52.8

Exercise: Can you share its viability, T/C? I mean this molecule: Cn1nccc1Nc1nccc(-c2ccn(C(CO)c3ccc(Cl)c(F)c3)c(=O)c2)n1 (stereo unspecified) + COc1c(OCCCN2CCOCC2)ccc2c3n(c(=NC(=O)c4cnc(N)nc4)nc12)CCN3
Solution: 77.3

Exercise: Can you share its viability, T/C? I mean this molecule: C=CC(=O)N1CCN(c2nc(=O)n(-c3c(C)ccnc3C(C)C)c3nc(-c4c(O)cccc4F)c(F)cc23)C(C)C1 (stereo unspecified) + COc1c(OCCCN2CCOCC2)ccc2c3n(c(=NC(=O)c4cnc(N)nc4)nc12)CCN3
Solution: 48.6

Exercise: Can you share its viability, T/C? I mean this molecule: C=CC(=O)N1CCN(c2nc(=O)n(-c3c(C)ccnc3C(C)C)c3nc(-c4c(O)cccc4F)c(F)cc23)C(C)C1 (stereo unspecified) + CC(Nc1ccc2c(c1)OCCn1cc(N3C(=O)OCC3C(F)F)nc1-2)C(N)=O
Solution: 54.1

Exercise: Can you share its viability, T/C? I mean this molecule: CC1(C)CCC(Nc2ncc(C(F)(F)F)c(-c3c[nH]c4c(P(C)(C)=O)c(C#N)ccc34)n2)CN1 (stereo unspecified) + COc1c(OCCCN2CCOCC2)ccc2c3n(c(=NC(=O)c4cnc(N)nc4)nc12)CCN3
Solution: 61.6

Exercise: Can you share its viability, T/C? I mean this molecule: CC(C)NCC(C(=O)N1CCN(c2ncnc3c2C(C)CC3O)CC1)c1ccc(Cl)cc1 (stereo unspecified) + CC(Nc1ncnc2nc[nH]c12)c1cc2cccc(Cl)c2c(=O)n1-c1ccccc1
Solution: 102

Exercise: Can you share its viability, T/C? I mean this molecule: CC(C)NCC(C(=O)N1CCN(c2ncnc3c2C(C)CC3O)CC1)c1ccc(Cl)cc1 (stereo unspecified) + Cc1nc(NC(=O)N2CCCC2C(N)=O)sc1-c1ccnc(C(C)(C)C(F)(F)F)c1
Solution: 100

###

# System: K98450-129-R-PDC multicell spheroids, viability
# assay_explanation: Anticancer human tumor K98450-129-R-PDC cell line growth inhibition [PI3K];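 further: spheroids exposed to agents for seven days before read-out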
# recorded_conditions: second compound 3.16 µM; first compound 0.000316 µM; hits give low values
measured_quantity: viability, T/C (%)
Answer format: numeric, % implied, no suffix.

Exercise: Can you share its viability, T/C? I mean this molecule: CC(=O)c1c(C)c2cnc(Nc3ccc(N4CCNCC4)cn3)nc2n(C2CCCC2)c1=O + CC(Nc1ncnc2nc[nH]c12)c1cc2cccc(Cl)c2c(=O)n1-c1ccccc1
Solution: 105

Exercise: Can you share its viability, T/C? I mean this molecule: Cn1ncnc1[C@H]1c2n[nH]c(=O)c3cc(F)cc(c23)N[C@@H]1c1ccc(F)cc1 + Cc1nc(NC(=O)N2CCCC2C(N)=O)sc1-c1ccnc(C(C)(C)C(F)(F)F)c1
Solution: 85

Exercise: Can you share its viability, T/C? I mean this molecule: Cn1ncnc1[C@H]1c2n[nH]c(=O)c3cc(F)cc(c23)N[C@@H]1c1ccc(F)cc1 + CC(Nc1ncnc2nc[nH]c12)c1cc2cccc(Cl)c2c(=O)n1-c1ccccc1
Solution: 103

Exercise: Can you share its viability, T/C? I mean this molecule: CC(=O)c1c(C)c2cnc(Nc3ccc(N4CCNCC4)cn3)nc2n(C2CCCC2)c1=O + Cc1nc(NC(=O)N2CCCC2C(N)=O)sc1-c1ccnc(C(C)(C)C(F)(F)F)c1
Solution: 88.2

Exercise: Can you share its viability, T/C? I mean this molecule: CC(C)n1nc(-c2ccc3oc(N)nc3c2)c2c(N)ncnc21 + Cc1nc(NC(=O)N2CCCC2C(N)=O)sc1-c1ccnc(C(C)(C)C(F)(F)F)c1
Solution: 79.4

Exercise: Can you share its viability, T/C? I mean this molecule: CC(C)n1nc(-c2ccc3oc(N)nc3c2)c2c(N)ncnc21 + CC(Nc1ncnc2nc[nH]c12)c1cc2cccc(Cl)c2c(=O)n1-c1ccccc1
Solution: 110

###

# Tested on: K98450-129-R-PDC multicell spheroids, viability
# assay_explanation: Anticancer human tumor K98450-129-R-PDC cell line growth inhibition [PI3K];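 further: spheroids exposed to agents for seven days before read-out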
# recorded_conditions: second compound 0.0316 µM; first compound 0.1 µM; hits give low values
measured_quantity: viability, T/C (%)
Answer format: numeric, % implied, no suffix.

Exercise: Can you share its viability, T/C? I mean this compound: C#Cc1c(F)ccc2cc(O)cc(-c3ncc4c(N5CC6CCC(C5)N6)nc(OCC56CCCN5CC(F)C6)nc4c3F)c12 (stereo not given) + CC(Nc1ccc2c(c1)OCCn1cc(N3C(=O)OCC3C(F)F)nc1-2)C(N)=O
Solution: 100

Exercise: Can you share its viability, T/C? I mean this compound: CC(Cn1ccc(-c2ccc(C#N)c(Cl)c2)n1)NC(=O)c1cc(C(C)O)[nH]n1 (stereo not given) + COc1c(OCCCN2CCOCC2)ccc2c3n(c(=NC(=O)c4cnc(N)nc4)nc12)CCN3
Solution: 92.9

Exercise: Can you share its viability, T/C? I mean this compound: CCCS(=O)(=O)Nc1ccc(F)c(C(=O)c2c[nH]c3ncc(-c4ccc(Cl)cc4)cc23)c1F + Cc1nc(NC(=O)N2CCCC2C(N)=O)sc1-c1ccnc(C(C)(C)C(F)(F)F)c1
Solution: 98.7

Exercise: Can you share its viability, T/C? I mean this compound: Cn1ncnc1[C@H]1c2n[nH]c(=O)c3cc(F)cc(c23)N[C@@H]1c1ccc(F)cc1 + CC(Nc1ncnc2nc[nH]c12)c1cc2cccc(Cl)c2c(=O)n1-c1ccccc1
Solution: 87.2

Exercise: Can you share its viability, T/C? I mean this compound: Cn1nccc1Nc1nccc(-c2ccn(C(CO)c3ccc(Cl)c(F)c3)c(=O)c2)n1 (stereo not given) + Cc1nc(NC(=O)N2CCCC2C(N)=O)sc1-c1ccnc(C(C)(C)C(F)(F)F)c1
Solution: 97.7

These data points were gathered from PubChem BioAssay AID1963961.
